Numbers sourced from patent US6737383B1.

Listing of entries alongside the reported Plant response rating, Crabgrass.
System: crabgrass
Experiment: Test B pre/postemergence crabgrass
Type: in vivo, Digitaria sanguinalis
Details: Preemergence, Rate 62 g/ha; scale of 0 to 10 where 0 is no effect and 10 is complete control
Description: […] At the same time, these crop and weed species were also treated with postemergence applications of test chemicals formulated in the same manner. […] Treated plants and controls were maintained in a greenhouse for twelve to sixteen days, after which all species were compared to controls and visually evaluated. […]
No unit in the answer, please; the number alone is enough.

# input Reported Plant response rating, Crabgrass, compound CC(C)N(C(=O)n1oc(=O)n(CCCF)c1=O)c1ccc(F)cc1F : ____
# output 7

# input Find the recorded Plant response rating, Crabgrass belonging to CC(C)N(C(=O)n1oc(=O)n(CC2CC2)c1=O)c1ccc(F)cc1F and report it.
# output 3

# input Give its Plant response rating, Crabgrass value. Item: CC(C)N(C(=O)n1oc(=O)n(CCC2OCCCO2)c1=O)c1ccc(Cl)cc1
# output 9

# input For the compound CC(C)N(C(=O)n1oc(=O)n(COC(=O)C(C)(C)C)c1=O)c1ccc(F)cc1 , what Plant response rating, Crabgrass is on record?
# output 0

----------
System: surinam grass
Assay: Test B pre/postemergence surinam grass
Assay type: in vivo, Brachiaria decumbens
Details: Preemergence, Rate 62 g/ha; scale 0 to 10 (0 no effect, 10 complete control)
Recorded B. signalgrass plant response rating values for a group of molecules are listed next.
The answer should be written as a number, with no unit following it.

- CC(C)N(C(=O)n1oc(=O)n(Cc2ccccc2)c1=O)c1ccc(Cl)cc1 [Compound 106]: 0
- CCCCCn1c(=O)on(C(=O)N(c2ccccc2)C(C)C)c1=O [Compound 557]: 4
- CC(C)N(C(=O)n1oc(=O)n(C(C)C)c1=O)c1ccccc1 [Compound 113]: 7
- C=CCCCn1c(=O)on(C(=O)N(c2ccccc2)C(C)C)c1=O [Compound 575]: 6
- C=C(Cl)Cn1c(=O)on(C(=O)N(c2ccccc2)C(C)C)c1=O [Compound 608]: 1
- CC(C)N(C(=O)n1oc(=O)n(CC2CCC2)c1=O)c1ccc(Cl)cc1 [Compound 550]: 6

We now examine a further molecule.
# input // B. signalgrass plant response rating lookup, key: Cc1ccccc1Cn1c(=O)on(C(=O)N(C)c2ccccc2)c1=O [Compound 85]
# output 0

----------
System: wild oat
Assay: Test B pre/postemergence wild oat
Assay type: in vivo, Avena fatua
Details: Preemergence, Rate 500 g/ha; scale of 0 to 10 where 0 is no effect and 10 is complete control
// reported Plant response rating, Wild oats for each item listed
Number, no unit, nothing else.

* CCOC(=O)C(C)N(C(=O)n1oc(=O)n(-c2ccccc2C)c1=O)c1ccc(F)cc1 (stereo not shown) | 0
* CC(C)N(C(=O)n1oc(=O)n(CCC(=O)N(C)C)c1=O)c1ccc(F)cc1 | 10
* Cc1nc(C)c(-n2c(=O)on(C(=O)N(c3ccc(F)cc3)C(C)C)c2=O)s1 | 0

Now turn to the next molecule.
# input Please give the measured Plant response rating, Wild oats for this molecule: CC(C)N(C(=O)n1oc(=O)n(CC(C)[N+](=O)[O-])c1=O)c1ccc(F)cc1F (stereo not shown)
# output 0

----------
System: crabgrass
Experiment: Test B pre/postemergence crabgrass
Assay type: in vivo, Digitaria sanguinalis
Details: Preemergence, Rate 500 g/ha; scale 0 to 10, 0 is no effect, 10 is complete control
value kind: Crabgrass plant response rating
Output spec: single numeric token, no unit.

* CC[Si](C)(C)Cn1c(=O)on(C(=O)N(c2ccc(Cl)cc2)C(C)C)c1=O [Compound 460] | 9
* CC(C)N(C(=O)n1oc(=O)n(CC#N)c1=O)c1ccc(F)cc1 [Compound 395] | 2

# input Any idea what its Crabgrass plant response rating is? The compound is CC(C)Cn1c(=O)on(C(=O)N(c2ccccc2)C(C)C)c1=O [Compound 410]
# output 10

# input Could you tell me which Crabgrass plant response rating is on file for CC(C)N(C(=O)n1oc(=O)n(COC(=O)C(C)(C)C)c1=O)c1ccc(F)cc1 [Compound 462] ?
# output 0

----------
System: blackgrass
Test: Test B pre/postemergence blackgrass
Format: in vivo, Alopecurus myosuroides
Settings: Preemergence, Rate 62 g/ha; scale 0 to 10 (0 no effect, 10 complete control)
value kind: Blackgrass plant response rating
// return just the number, without any unit appended

Below: 8 molecules and their reported Blackgrass plant response rating.
- COc1cccc(C)c1-n1c(=O)on(C(=O)N(c2ccc(F)cc2)C(C)C)c1=O: 0
- C=C(Cl)Cn1c(=O)on(C(=O)N(c2ccccc2)C(C)C)c1=O: 2
- C#CC(C)n1c(=O)on(C(=O)N(c2ccccc2)C(C)C)c1=O (stereo not drawn): 7
- CC(C)N(C(=O)n1oc(=O)n(C(C)CBr)c1=O)c1ccc(F)cc1F (stereo not drawn): 5
- CC(C)N(C(=O)n1oc(=O)n(CC2CCC2)c1=O)c1ccc(Cl)cc1: 0
- CCN(Cc1ccccc1)C(=O)n1oc(=O)n(-c2ccccc2C)c1=O: 0
- CC(C)N(C(=O)n1oc(=O)n(Cc2ccccc2)c1=O)c1ccc(Cl)cc1: 0
- CC(C)N(C(=O)n1oc(=O)n(CCc2ccccc2)c1=O)c1ccccc1: 0

Attention now turns to another entry.
# input Form field: reported Blackgrass plant response rating of CC(C)N(C(=O)n1oc(=O)n(C[Si](C)(C)C)c1=O)c1ccc(Cl)cc1
# output 0

----------
Tested on: corn
Assay: Test B pre/postemergence corn
Type: in vivo, Zea mays
Details: Postemergence, Rate 500 g/ha; scale 0 to 10, 0 is no effect, 10 is complete control
Listing: Plant response rating, Corn of selected compounds
Reply: number alone, nothing else.

Example compounds with recorded Plant response rating, Corn:
• CCOC(=O)C=C(Cn1c(=O)on(C(=O)N(c2ccc(Cl)cc2)C(C)C)c1=O)OCC = 0
• CC(C)N(C(=O)n1oc(=O)n(CC2=NCCCO2)c1=O)c1ccccc1 = 0
• CC(C)N(C(=O)n1oc(=O)n(CCCNC(=O)CCl)c1=O)c1ccccc1 = 0
• CCC=CCn1c(=O)on(C(=O)N(c2ccc(F)cc2F)C(C)C)c1=O = 2

Okay, next one:
# input // returns reported Plant response rating, Corn for input CCC(=O)Cn1c(=O)on(C(=O)N(c2ccc(F)cc2F)C(C)C)c1=O
# output 5

----------
Catalogue of compounds with associated Nutsedge plant response rating
Test system: purple nutsedge
Assay: Test B pre/postemergence purple nutsedge
Type: in vivo, Cyperus rotundus
Details: Preemergence, Rate 62 g/ha; scale of 0 to 10 where 0 is no effect and 10 is complete control
Field format: numeric only.

* Cc1cccc(C(C)(C)C)c1-n1c(=O)on(C(=O)N(c2ccccc2)C(C)C)c1=O [Compound 303] | 0
* CCn1ncc(Cn2c(=O)on(C(=O)N(c3ccc(F)cc3F)C(C)C)c2=O)c1Cl [Compound 682] | 0
* COC(=O)C=CCn1c(=O)on(C(=O)N(c2ccc(F)cc2)C(C)C)c1=O [Compound 263] | 0
* Cc1ccccc1-n1c(=O)on(C(=O)N(c2ccc(Oc3ccccc3)cc2)C(C)C)c1=O [Compound 268] | 0
* CC(C)N(C(=O)n1oc(=O)n(C(C)C2=NOCC2)c1=O)c1ccccc1 (racemic) [Compound 729] | 0
* CC(C)N(C(=O)n1oc(=O)n(Cc2nnsc2Cl)c1=O)c1ccc(F)cc1F [Compound 320] | 0

# input Would you mind telling me what Nutsedge plant response rating value was observed for Cc1nsc(C)c1-n1c(=O)on(C(=O)N(c2ccc(F)cc2F)C(C)C)c1=O [Compound 158] ?
# output 0

# input Given the entry CC(C)N(C(=O)n1oc(=O)n(Cc2nnc(Cl)s2)c1=O)c1ccccc1 [Compound 654] , report its measured Nutsedge plant response rating.
# output 0

# input Need Nutsedge plant response rating of CC(C)N(C(=O)n1oc(=O)n(CCCCl)c1=O)c1ccc(F)cc1 [Compound 713] , thanks.
# output 0

# input # get_value(readout='Nutsedge plant response rating', item= CC(C)N(C(=O)n1oc(=O)n(CC(=O)C2CCC2)c1=O)c1ccc(F)cc1F [Compound 642] )
# output 0

----------
Test system: corn
Assay: Test B pre/postemergence corn
Format: in vivo, Zea mays
Details: Postemergence, Rate 250 g/ha; scale 0 to 10, 0 no effect, 10 complete control
Each item that follows carries a reported Corn plant response rating.
Output spec: single numeric token, no unit.

* COc1ccc(-n2c(=O)on(C(=O)N(c3ccc(F)cc3)C(C)C)c2=O)c(OC)c1 [Compound 33] | 0
* COc1cccc(C)c1-n1c(=O)on(C(=O)N(c2ccc(F)cc2)C(C)C)c1=O [Compound 62] | 0
* CCN(Cc1ccccc1)C(=O)n1oc(=O)n(-c2ccccc2C)c1=O [Compound 71] | 0

Let us examine a further case.
# input Please provide the recorded Corn plant response rating for Cc1ccccc1Cn1c(=O)on(C(=O)N(C)c2ccccc2)c1=O [Compound 85] , tested on corn.
# output 0
